biological target: Mitogen-activated protein kinase 14 (Homo sapiens); assay: Inhibition of p38 MAP kinase alpha (unknown origin) after 1 hr by Z'-lyte assay
Sequence (Q16539 whole entry): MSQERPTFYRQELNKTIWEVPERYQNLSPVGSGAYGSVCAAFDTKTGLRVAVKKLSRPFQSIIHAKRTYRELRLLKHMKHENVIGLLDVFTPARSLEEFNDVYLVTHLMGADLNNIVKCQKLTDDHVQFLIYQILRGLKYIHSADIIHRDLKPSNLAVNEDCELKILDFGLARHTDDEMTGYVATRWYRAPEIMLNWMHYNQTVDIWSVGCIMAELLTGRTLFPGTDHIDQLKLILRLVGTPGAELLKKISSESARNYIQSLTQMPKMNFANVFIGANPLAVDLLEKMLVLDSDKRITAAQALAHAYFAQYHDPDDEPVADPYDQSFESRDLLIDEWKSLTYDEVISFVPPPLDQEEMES
quantity: IC50 (nM)
One number for each entry, in nM.

# example entries with known answers
1) CC(C)C[C@H](NCCc1cc(F)c(-n2c(N)c(C(=O)c3ccc(F)cc3F)ccc2=O)c(F)c1)C(=O)OC1CCCC1 : 273
2) CC(C)C[C@H](NCCc1cc(F)c(-n2c(N)c(C(=O)c3ccc(F)cc3F)ccc2=O)c(F)c1)C(=O)O : 1.2
3) Nc1c(C(=O)c2ccc(F)cc2F)ccc(=O)n1-c1c(F)cc(OCCC[C@H](N)C(=O)O)cc1F : 1
4) Nc1c(C(=O)c2ccc(F)cc2F)ccc(=O)n1-c1c(F)cccc1F : 1.86

--- query ---
QUERY: With Mitogen-activated protein kinase 14 (Homo sapiens) as the test system, provide measured IC50 for this molecule: "Nc1c(C(=O)c2ccc(F)cc2F)ccc(=O)n1-c1c(F)cc(OCCC[C@H](N)C(=O)OC2CCCC2)cc1F"
RESULT: 6.5
